Some compounds, each annotated with its measured MIC.
- System: Escherichia coli
- assay-text: Antibacterial activity against permeabilized Escherichia coli IBAS849 by broth microdilution method
- Format: functional
Give the value in µg/mL but do not write µg/mL after it.

Please review the entries below; each comes with its answer.
* CCc1[nH]c2nc(Sc3ccc4cccnc4c3)nc(N3C[C@@H]4[C@@H](N)[C@@H]4C3)c2c1Cl | 4
* CCc1[nH]c2nc(Sc3cnc4nccnc4c3)nc(N3C[C@@H]4[C@H](C3)[C@@]4(N)CO)c2c1Cl | 4
* CCc1[nH]c2nc(Oc3cncnc3)nc(N3C[C@@H]4[C@@H](N)[C@@H]4C3)c2c1Cl | 1
* CCc1[nH]c2nc(Sc3cnc4nccnc4c3)nc(N3CC(NC(=O)C4CC4)C3)c2c1Cl | 8
* CCc1[nH]c2nc(Sc3cnc4nccnc4c3)nc(N3C[C@@H]4[C@@H](N)[C@@H]4C3)c2c1Cl | 0.5

Request: # return recorded MIC for input `CCc1[nH]c2nc(Sc3ccc4nccnc4c3)nc(N3C[C@@H]4[C@@H](N)[C@@H]4C3)c2c1Cl`
Response: 0.25

Request: # return recorded MIC for input CCc1[nH]c2nc(Sc3ccc4c(N)nc(C)nc4c3)nc(N3CCC(N)C3)c2c1Cl (stereo not drawn)
Response: 8

====

- Test system: Escherichia coli
- assay-text: Antibacterial activity against permeabilized Escherichia coli IBAS849 by broth microdilution method
- Assay type: functional
endpoint-label: MIC (µg/mL)
Give the value in µg/mL but do not write µg/mL after it.

* CCc1[nH]c2nc(Sc3cnc4nccnc4c3)nc(N3CCC(N)C3)c2c1Cl (stereo not given) | 4

Request: # return recorded MIC for input `CCc1[nH]c2nc(Sc3cccnc3)nc(NC[C@H](C)O)c2c1Cl`
Response: 32

====

- System: Escherichia coli
- assay-text: Antibacterial activity against permeabilized Escherichia coli IBAS849 by broth microdilution method
- Format: functional
Decision: MIC beneath 8 µg/mL gives criterion met; MIC meeting or exceeding 8 µg/mL gives criterion not met.

Examples with answers:
- CCc1[nH]c2nc(Oc3cnc4cccnc4c3)nc(N3C[C@@H]4[C@@H](N)[C@@H]4C3)c2c1Cl: criterion met
- CCNC(=O)NC1CN(c2nc(Sc3cnc4nccnc4c3)nc3[nH]c(CC)c(Cl)c23)C1: criterion not met
- CCc1[nH]c2nc(Sc3cnc4nccnc4c3)nc(N3CCC(NC)C3)c2c1Cl (centres undefined): criterion not met
- CCc1[nH]c2nc(Sc3cnc4nccnc4c3)nc(N3CCC4(CCCN4)C3)c2c1Cl (centres undefined): criterion not met
- CCc1[nH]c2nc(Sc3ccc4c(N5CCC(N)C5)nc(C(=O)O)nc4c3)nc(N3CCC(N)C3)c2c1Cl (centres undefined): criterion met
- CCc1[nH]c2nc(Sc3ccc4cc5c([n+]([O-])c4c3)CCNC5)nc(N3CCC(N)C3)c2c1Cl (centres undefined): criterion not met
- CCc1[nH]c2nc(Sc3cnc4nccnc4c3)nc(N3CC4CNC4C3)c2c1Cl (centres undefined): criterion met

Switching to the query record.
Request: MIC strictly < 8 µg/mL for this compound? `CCc1[nH]c2nc(Sc3ccc4ccc[n+]([O-])c4c3)nc(N3C[C@@H]4[C@@H](N)[C@@H]4C3)c2c1Cl`
Response: criterion met

====

- Test system: Escherichia coli
- assay-text: Antibacterial activity against permeabilized Escherichia coli IBAS849 by broth microdilution method
- Format: functional
Some molecules, each annotated with its measured MIC.
Give the value in µg/mL but do not write µg/mL after it.

Please review the entries below; each comes with its answer.
* CCc1[nH]c2nc(Sc3cnc4nccnc4c3)nc(N3CC4CNCC4C3)c2c1Cl (configuration not stated) | 8
* CCc1[nH]c2nc(Sc3cnc4nccnc4c3)nc(N3C[C@@H]4[C@H](C3)[C@@]4(N)C(N)=O)c2c1Cl | 2
* CCc1[nH]c2nc(Oc3cnc4ccc[n+]([O-])c4c3)nc(N3CC[C@@H](N)C3)c2c1Cl | 1
* CCc1[nH]c2nc(Sc3cnc4nccnc4c3)nc(N3CC(NC(=O)c4cnccn4)C3)c2c1Cl | 8
* CCc1[nH]c2nc(Sc3cnc4nccnc4c3)nc(N3CCCC(N)C3)c2c1Cl (configuration not stated) | 32

Request: # return recorded MIC for input `CCc1[nH]c2nc(Sc3cnc4nccnc4c3)nc(N3CC(N)C3)c2c1Cl`
Response: 8

Request: # return recorded MIC for input `CCc1[nH]c2nc(Sc3cnc4ccc[n+]([O-])c4c3)nc(N3C[C@@H]4[C@@H](N)[C@@H]4C3)c2c1Cl`
Response: 0.13

Request: # return recorded MIC for input `CCc1[nH]c2nc(Sc3cnc4cccnc4c3)nc(N3C[C@@H]4[C@@H](N)[C@@H]4C3)c2c1Cl`
Response: 1

Request: # return recorded MIC for input `CCc1[nH]c2nc(Sc3ccc4c(c3)C(=O)NC4)nc(N3C[C@@H]4[C@@H](N)[C@@H]4C3)c2c1Cl`
Response: 4

Request: # return recorded MIC for input `CCc1[nH]c2nc(Sc3cncc(S(=O)(=O)N(C)C)c3)nc(N3C[C@@H]4[C@@H](N)[C@@H]4C3)c2c1Cl`
Response: 32

Request: # return recorded MIC for input `CCc1[nH]c2nc(Sc3cnc4c(c3)c(=O)ncn4C)nc(N3C[C@@H]4[C@@H](N)[C@@H]4C3)c2c1Cl`
Response: 2

Request: # return recorded MIC for input `CCc1[nH]c2nc(Sc3cnc4nccnc4c3)nc(N3C[C@@H]4[C@H](C3)[C@H]4NC(=N)N)c2c1Cl`
Response: 2

Request: # return recorded MIC for input `CCc1[nH]c2nc(Sc3cnc4nccnc4c3)nc(N3CC(NC(=O)COC)C3)c2c1Cl`
Response: 4

Request: # return recorded MIC for input CCc1[nH]c2nc(Sc3cnc4nccnc4c3)nc(N3CC4CCNC4C3)c2c1Cl (configuration not stated)
Response: 4

Request: # return recorded MIC for input `CCc1[nH]c2nc(Sc3cnc4nccnc4c3)nc(N3CC(NS(C)(=O)=O)C3)c2c1Cl`
Response: 32
